Target: UniProt P25100
Sequence (P25100 whole entry): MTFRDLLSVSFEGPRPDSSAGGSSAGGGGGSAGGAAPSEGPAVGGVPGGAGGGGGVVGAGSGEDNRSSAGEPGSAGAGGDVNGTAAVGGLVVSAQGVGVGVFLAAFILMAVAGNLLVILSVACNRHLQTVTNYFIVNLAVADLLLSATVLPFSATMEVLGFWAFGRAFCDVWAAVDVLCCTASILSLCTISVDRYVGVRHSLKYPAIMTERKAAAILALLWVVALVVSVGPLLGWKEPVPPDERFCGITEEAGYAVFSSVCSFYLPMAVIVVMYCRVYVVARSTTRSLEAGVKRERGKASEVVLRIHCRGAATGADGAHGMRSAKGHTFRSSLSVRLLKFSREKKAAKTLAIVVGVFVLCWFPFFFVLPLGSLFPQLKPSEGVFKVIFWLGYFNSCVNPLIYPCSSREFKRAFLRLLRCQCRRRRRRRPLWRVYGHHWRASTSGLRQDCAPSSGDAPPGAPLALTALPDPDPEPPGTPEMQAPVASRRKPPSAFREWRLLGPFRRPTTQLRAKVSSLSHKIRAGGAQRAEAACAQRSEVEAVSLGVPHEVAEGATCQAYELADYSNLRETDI
Experiment: Displacement of [3H]prazosin from human alpha1D adrenergic receptor expressed in CHO cell membranes after 30 mins by rapid filtration method
assay-metric: Ki (nM)

> print(dat)
                            compound.string    study.target  assay.metric  units.of.measure  result.value
1  COc1cc2nc(N3CCN(C(=O)COc4c(OC)cccc4C(C)C)[C@H]4CCCC[C@H]43)nc(N)c2cc1OC  UniProt P25100            Ki                nM         0.389
2  CCCN(CCC)c1nc(N2CCN(C(=O)c3ccco3)[C@H]3CCCC[C@H]32)nc2cc(OC)c(OC)cc12  UniProt P25100            Ki                nM          5.13
3  CCCCCC(=O)N1CCN(c2nc(N)c3cc(OC)c(OC)cc3n2)[C@@H]2CCCC[C@@H]21  UniProt P25100            Ki                nM          3.72

====

target: Alpha-1D adrenergic receptor (Homo sapiens, UniProt P25100); test: Displacement of [3H]prazosin from human alpha1D adrenergic receptor expressed in CHO cell membranes after 30 mins by rapid filtration method
assay-metric: Ki (nM)

> print(dat)
                            compound.string  assay.metric  result.value
1  COc1cc2nc(N3CCN(C(=O)c4ccco4)[C@@H]4CCCC[C@@H]43)nc(N)c2cc1OC            Ki        0.0603
2  COc1cc2nc(N3CCN(C(=O)Cc4ccc5ccccc5c4)[C@H]4CCCC[C@H]43)nc(N)c2cc1OC            Ki          2.24
3  COc1cc2nc(N3CCN(C(=O)OCc4ccccc4)[C@H]4CCCC[C@H]43)nc(N)c2cc1OC            Ki          3.98
4  COc1cc2nc(N3CCN(C(C)=O)[C@H]4CCCC[C@H]43)nc(N)c2cc1OC            Ki           105
5  COc1cc2nc(N3CCN(C(=O)OCc4ccccc4)[C@@H]4CCCC[C@@H]43)nc(N)c2cc1OC            Ki        0.0398
6  CCCN(CCC)c1nc(N2CCN(C(=O)c3ccco3)[C@@H]3CCCC[C@@H]32)nc2cc(OC)c(OC)cc12            Ki        0.0631
7  COc1cc2nc(N3CCN(C(C)=O)[C@@H]4CCCC[C@@H]43)nc(N)c2cc1OC            Ki         0.151
8  COc1cc2nc(N3CCN(C(=O)C(C)(C)C)[C@H]4CCCC[C@H]43)nc(N)c2cc1OC            Ki          6.17

====

species: Homo sapiens; test: Selectivity ratio of compound effect for displacement of [3H]prazosin from human alpha1B adrenergic receptor expressed in CHO cell membranes to compound effect for displacement of [3H]prazosin from human alpha1D adrenergic receptor expressed in CHO cell membranes
assay-metric: Selectivity ratio

> print(dat)
                             compound.string       assay.metric  result.value
 1  COc1cc2nc(N3CCN(C(=O)Cc4ccc5ccccc5c4)[C@H]4CCCC[C@H]43)nc(N)c2cc1OC  Selectivity ratio             2
 2  COc1cc2nc(N3CCN(C(=O)C(C)(C)C)[C@H]4CCCC[C@H]43)nc(N)c2cc1OC  Selectivity ratio             8
 3  COc1cc2nc(N3CCN(C(=O)OCc4ccccc4)[C@H]4CCCC[C@H]43)nc(N)c2cc1OC  Selectivity ratio            11
 4  COc1cc2nc(N3CCN(C(=O)COc4c(OC)cccc4C(C)C)[C@H]4CCCC[C@H]43)nc(N)c2cc1OC  Selectivity ratio             3
 5  COc1cc2nc(N3CCN(C(C)=O)[C@@H]4CCCC[C@@H]43)nc(N)c2cc1OC  Selectivity ratio           0.2
 6  CCCCCC(=O)N1CCN(c2nc(N)c3cc(OC)c(OC)cc3n2)[C@@H]2CCCC[C@@H]21  Selectivity ratio             4
 7  COc1cc2nc(N3CCN(C(=O)OCc4ccccc4)[C@@H]4CCCC[C@@H]43)nc(N)c2cc1OC  Selectivity ratio           0.2
 8  CCCN(CCC)c1nc(N2CCN(C(=O)c3ccco3)[C@H]3CCCC[C@H]32)nc2cc(OC)c(OC)cc12  Selectivity ratio            17
 9  COc1cc2nc(N3CCN(C(C)=O)[C@H]4CCCC[C@H]43)nc(N)c2cc1OC  Selectivity ratio            12
10  CCCN(CCC)c1nc(N2CCN(C(=O)c3ccco3)[C@@H]3CCCC[C@@H]32)nc2cc(OC)c(OC)cc12  Selectivity ratio           0.5

====

target: Alpha-1B adrenergic receptor (Rattus norvegicus, UniProt P15823); assay: Antagonist activity at alpha1B adrenergic receptor in Wistar rat spleen assessed as inhibition of phenylephrine-induced contraction incubated for 30 mins in presence of beta-adrenoceptor blocker propranolol hydrochloride; assay type: functional; details: read-out: pA2 (converted)
Sequence (P15823 whole entry): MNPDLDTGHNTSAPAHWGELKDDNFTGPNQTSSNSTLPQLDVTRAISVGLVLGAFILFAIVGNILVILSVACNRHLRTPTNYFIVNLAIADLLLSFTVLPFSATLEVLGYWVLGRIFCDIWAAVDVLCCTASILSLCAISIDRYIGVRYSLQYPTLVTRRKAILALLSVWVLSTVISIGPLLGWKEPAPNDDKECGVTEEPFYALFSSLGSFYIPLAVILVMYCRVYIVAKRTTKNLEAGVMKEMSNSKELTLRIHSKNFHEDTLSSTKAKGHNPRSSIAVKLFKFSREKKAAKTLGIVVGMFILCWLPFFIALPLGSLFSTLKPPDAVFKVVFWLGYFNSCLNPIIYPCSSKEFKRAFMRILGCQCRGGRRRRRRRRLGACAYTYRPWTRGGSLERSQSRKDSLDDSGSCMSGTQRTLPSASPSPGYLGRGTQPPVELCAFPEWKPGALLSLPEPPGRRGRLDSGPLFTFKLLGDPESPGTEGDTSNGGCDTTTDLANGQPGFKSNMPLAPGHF
Quick list: Kb per entry.
assay-metric: Kb (nM)

> print(dat)
                            compound.string                              study.target  result.value
1  COc1cc2nc(N3CCN(C(C)=O)[C@@H]4CCCC[C@@H]43)nc(N)c2cc1OC  Alpha-1B adrenergic receptor (Rattus norvegicus, UniProt P15823)         0.617
2  COc1cc2nc(N3CCN(C(=O)COc4c(OC)cccc4C(C)C)[C@H]4CCCC[C@H]43)nc(N)c2cc1OC  Alpha-1B adrenergic receptor (Rattus norvegicus, UniProt P15823)           191
3  COc1cc2nc(N3CCN(C(=O)OCc4ccccc4)[C@@H]4CCCC[C@@H]43)nc(N)c2cc1OC  Alpha-1B adrenergic receptor (Rattus norvegicus, UniProt P15823)          1.82
4  COc1cc2nc(N3CCN(C(C)=O)[C@H]4CCCC[C@H]43)nc(N)c2cc1OC  Alpha-1B adrenergic receptor (Rattus norvegicus, UniProt P15823)          3.02

====

Quick list: Ki per entry.
Molecular target: UniProtKB P35368
Sequence (P35368 whole entry): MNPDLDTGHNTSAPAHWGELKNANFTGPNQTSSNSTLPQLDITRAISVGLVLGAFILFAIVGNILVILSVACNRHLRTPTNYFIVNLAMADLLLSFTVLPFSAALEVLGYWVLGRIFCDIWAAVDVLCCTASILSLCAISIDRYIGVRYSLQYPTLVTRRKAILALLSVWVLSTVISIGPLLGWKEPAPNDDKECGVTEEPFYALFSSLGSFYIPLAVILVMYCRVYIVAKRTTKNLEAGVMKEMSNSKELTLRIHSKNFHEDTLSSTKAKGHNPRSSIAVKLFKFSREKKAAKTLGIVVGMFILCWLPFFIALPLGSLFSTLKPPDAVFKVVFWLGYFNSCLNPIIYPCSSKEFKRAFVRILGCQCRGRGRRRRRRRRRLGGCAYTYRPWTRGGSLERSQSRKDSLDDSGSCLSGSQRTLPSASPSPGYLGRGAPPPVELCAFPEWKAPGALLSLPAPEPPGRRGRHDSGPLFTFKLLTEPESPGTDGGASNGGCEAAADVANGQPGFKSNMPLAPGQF
Test: Displacement of [3H]prazosin from human alpha1B adrenergic receptor expressed in CHO cell membranes after 30 mins by rapid filtration method
assay-metric: Ki (nM)

> print(dat)
                            compound.string  units.of.measure  result.value
1  COc1cc2nc(N3CCN(C(=O)Cc4ccc5ccccc5c4)[C@H]4CCCC[C@H]43)nc(N)c2cc1OC                nM          1.17
2  COc1cc2nc(N3CCN(C(=O)OCc4ccccc4)[C@H]4CCCC[C@H]43)nc(N)c2cc1OC                nM          0.38
3  CCCN(CCC)c1nc(N2CCN(C(=O)c3ccco3)[C@@H]3CCCC[C@@H]32)nc2cc(OC)c(OC)cc12                nM         0.129
4  CCCN(CCC)c1nc(N2CCN(C(=O)c3ccco3)[C@H]3CCCC[C@H]32)nc2cc(OC)c(OC)cc12                nM         0.302
